Property: IC50; scope: individual compounds
- Target Of Assay: c-FMS kinase in THP-1 cells (Homo sapiens (Human))
- Sequence (P07333 20-972): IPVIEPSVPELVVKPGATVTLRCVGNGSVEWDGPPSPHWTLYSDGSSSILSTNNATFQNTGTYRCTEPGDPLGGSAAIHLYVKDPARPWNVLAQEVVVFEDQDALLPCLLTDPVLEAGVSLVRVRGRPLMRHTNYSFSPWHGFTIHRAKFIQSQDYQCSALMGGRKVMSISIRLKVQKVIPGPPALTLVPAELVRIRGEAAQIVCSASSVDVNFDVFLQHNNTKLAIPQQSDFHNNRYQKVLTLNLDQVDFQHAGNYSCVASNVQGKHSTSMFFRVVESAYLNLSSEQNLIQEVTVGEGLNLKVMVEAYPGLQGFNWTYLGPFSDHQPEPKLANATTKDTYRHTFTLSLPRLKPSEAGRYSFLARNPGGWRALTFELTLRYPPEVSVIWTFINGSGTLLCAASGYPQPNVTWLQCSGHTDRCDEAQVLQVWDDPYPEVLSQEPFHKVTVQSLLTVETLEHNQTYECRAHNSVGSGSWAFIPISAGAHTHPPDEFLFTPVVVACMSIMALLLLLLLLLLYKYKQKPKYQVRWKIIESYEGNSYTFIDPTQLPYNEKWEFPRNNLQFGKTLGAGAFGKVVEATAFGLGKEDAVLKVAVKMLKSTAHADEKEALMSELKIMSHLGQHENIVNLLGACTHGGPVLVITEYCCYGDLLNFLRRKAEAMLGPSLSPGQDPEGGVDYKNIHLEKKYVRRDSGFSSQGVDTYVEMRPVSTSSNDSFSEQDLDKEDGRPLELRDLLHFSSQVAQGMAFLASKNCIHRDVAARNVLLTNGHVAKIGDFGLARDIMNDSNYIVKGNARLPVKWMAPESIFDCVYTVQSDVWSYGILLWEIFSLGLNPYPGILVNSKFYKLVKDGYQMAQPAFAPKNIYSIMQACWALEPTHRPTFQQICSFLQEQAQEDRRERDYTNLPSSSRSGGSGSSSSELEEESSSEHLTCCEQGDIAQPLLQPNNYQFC
- Test Summary: Phospho-FMS ELISA assay in THP-1 cells
- Assay type: cell-based
- Experimental Conditions: 4 h compound, M-CSF stimulation 5 min; read-out: pFMS inhibition in THP-1 cells
- Method: THP-1 cells (catalog #TIB-202) were obtained from the ATCC. Briefly, cells were grown in RPMI 1640 supplemented with 10% characterized fetal bovine serum, 1% sodium pyruvate, 1% Penicillin-Streptomycin-Glutamine (PSG) and 55 uM 2-mercaptoethanol (Invitrogen, Carlsbad, Calif.) at 37 degrees Celsius, 5% CO2, 95% humidity. Cells were allowed to expand until reaching 70-95% confluency at which point they were subcultured or harvested for assay use. […]

Illustrative cases are given below, each with its answer.
CCc1nc(NC(=O)N2CCN(C3CCOCC3)C2=O)ccc1Oc1ccnc(-c2cnn(C)c2)c1 ... 100 to 1000 nM
Cc1nc(NC(=O)N2CCN(C3COC3)C2=O)ccc1Oc1ccnc(-c2cnn(C)c2)c1 ... 10 to 100 nM
CCN1CCN(C(=O)Nc2ccc(Oc3ccnc(-c4ccc(C5CCN(C)CC5)cc4)c3)c(C)n2)C1=O ... < 10 nM

Recorded IC50 for `Cn1cc(-c2cc(Oc3ccc(NC(=O)N4CCN(C5CCOCC5)C4=O)nc3)ccn2)cn1` , please?
10 to 100 nM

* * *

Property: pIC50; scope: individual compounds
- System: osteoclast precursors
- Test Summary: Osteoclast tartrate-resistant acid phosphatase assay
- Type: cell-based
- Experimental Conditions: Osteoclast, 7-14 days, RANKL and M-CSF
pIC50: −log10 of the molar value.

Illustrative cases are given below, each with its answer.
CCN1CCN(C(=O)Nc2ccc(Oc3ccnc(-c4cnc(C)s4)c3)c(C)n2)C1=O [Example 70] ... 7.00 to 8.00
CCN1CCN(C(=O)Nc2ccc(Oc3ccnc(-n4cnc(C)c4)c3)cn2)C1=O [Example 79] ... 6.00 to 7.00
Cn1cc(-c2cc(Oc3cc(F)c(NC(=O)N4CCN(C5CCOCC5)C4=O)cc3Cl)ccn2)cn1 [Example 92] ... 7.00 to 8.00
CC(=O)Nc1cc(Oc2ccc(NC(=O)N3CCN(C4CCOCC4)C3=O)nc2)ccn1 [Example 119] ... 7.00 to 8.00
Cn1cc(-c2cc(Oc3ccc(NC(=O)N4CCN(C5CCOCC5)C4=O)cc3F)ccn2)cn1 [Example 102] ... 6.00 to 7.00
Cc1nc(NC(=O)N2CCN(C3CCOCC3)C2=O)ccc1Oc1ccnc(-c2cn[nH]c2)c1 [Example 9] ... 7.00 to 8.00
Cc1ncc(-c2cc(Oc3ccc(NC(=O)N4CCN(C)C4=O)nc3C)ccn2)s1 [Example 73] ... 6.00 to 7.00
Cc1nc(NC(=O)N2CCN(C3CCOC3)C2=O)ccc1Oc1ccnc(-c2cnn(C)c2)c1 (stereo in doubt) [Example 23] ... 7.00 to 8.00
Cc1c(Oc2ccnc(-c3cnn(C)c3)c2)ccc(NC(=O)N2CCN(C3CCOCC3)C2=O)c1F [Example 93] ... 7.00 to 8.00
CCc1nc(NC(=O)N2CCN(C3CCOCC3)C2=O)ccc1Oc1ccnc(-c2ccnc(C)c2)c1 [Example 64] ... < 6.00

Give the reported pIC50 for [2H]C([2H])([2H])n1cc(-c2cc(Oc3ccc(NC(=O)N4CCN(CCOC)C4=O)nc3C)ccn2)cn1 [Example 39] (system: osteoclast precursors).
7.00 to 8.00

Give the reported pIC50 for O=C(Nc1ccc(Oc2ccnc(-c3cn[nH]c3)c2)cn1)N1CCN(C2CCOCC2)C1=O [Example 5] (system: osteoclast precursors).
7.00 to 8.00

Give the reported pIC50 for CN(C)C(=O)Nc1cc(Oc2cc(F)c(NC(=O)N3CCN(C4CCOCC4)C3=O)cc2Cl)ccn1 [Example 101] (system: osteoclast precursors).
> 8.00

Give the reported pIC50 for CCN1CCN(C(=O)Nc2ccc(Oc3ccnc(-c4ccnc(C)c4)c3)c(C)n2)C1=O [Example 118] (system: osteoclast precursors).
7.00 to 8.00

Give the reported pIC50 for Cc1cc(-c2cc(Oc3ccc(NC(=O)N4CCN(C5CCOCC5)C4=O)nc3C)ccn2)on1 [Example 14] (system: osteoclast precursors).
7.00 to 8.00

Give the reported pIC50 for Cc1nc(NC(=O)N2CCN(CC(F)(F)F)C2=O)ccc1Oc1ccnc(-c2cnn(C)c2)c1 [Example 43] (system: osteoclast precursors).
> 8.00

Origin of values: patent US9133183B2
